ASSAYED TARGET: UniProt:P06239
Sequence (P06239 whole entry): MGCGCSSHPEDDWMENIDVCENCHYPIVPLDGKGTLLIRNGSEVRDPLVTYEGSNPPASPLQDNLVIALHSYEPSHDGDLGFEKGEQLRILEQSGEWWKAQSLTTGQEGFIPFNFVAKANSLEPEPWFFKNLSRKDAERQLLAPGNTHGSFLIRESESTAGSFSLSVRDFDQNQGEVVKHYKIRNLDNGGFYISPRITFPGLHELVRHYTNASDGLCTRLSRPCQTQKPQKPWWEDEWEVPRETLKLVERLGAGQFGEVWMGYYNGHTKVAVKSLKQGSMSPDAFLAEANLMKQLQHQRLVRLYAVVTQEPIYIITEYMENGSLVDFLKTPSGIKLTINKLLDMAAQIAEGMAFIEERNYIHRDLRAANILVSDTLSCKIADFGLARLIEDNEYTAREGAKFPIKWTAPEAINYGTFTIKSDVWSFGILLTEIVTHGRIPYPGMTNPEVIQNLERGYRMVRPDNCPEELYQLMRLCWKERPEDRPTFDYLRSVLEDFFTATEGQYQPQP
RECORDED METRIC: IC50
A complete answer gives the number and then names the unit.

Task: Consider the compound Cc1ccc(NC(=O)c2ccc(C)c(C(F)(F)F)c2)cc1C#Cc1nn([C@H]2CC[C@H](O)CC2)c2ncnc(N)c12 tested on UniProt:P06239; state its IC50.
Result: 14 nM

---

ASSAYED TARGET: EphA2 (Homo sapiens (Human), UniProt P29317)
Sequence (P29317 24-976): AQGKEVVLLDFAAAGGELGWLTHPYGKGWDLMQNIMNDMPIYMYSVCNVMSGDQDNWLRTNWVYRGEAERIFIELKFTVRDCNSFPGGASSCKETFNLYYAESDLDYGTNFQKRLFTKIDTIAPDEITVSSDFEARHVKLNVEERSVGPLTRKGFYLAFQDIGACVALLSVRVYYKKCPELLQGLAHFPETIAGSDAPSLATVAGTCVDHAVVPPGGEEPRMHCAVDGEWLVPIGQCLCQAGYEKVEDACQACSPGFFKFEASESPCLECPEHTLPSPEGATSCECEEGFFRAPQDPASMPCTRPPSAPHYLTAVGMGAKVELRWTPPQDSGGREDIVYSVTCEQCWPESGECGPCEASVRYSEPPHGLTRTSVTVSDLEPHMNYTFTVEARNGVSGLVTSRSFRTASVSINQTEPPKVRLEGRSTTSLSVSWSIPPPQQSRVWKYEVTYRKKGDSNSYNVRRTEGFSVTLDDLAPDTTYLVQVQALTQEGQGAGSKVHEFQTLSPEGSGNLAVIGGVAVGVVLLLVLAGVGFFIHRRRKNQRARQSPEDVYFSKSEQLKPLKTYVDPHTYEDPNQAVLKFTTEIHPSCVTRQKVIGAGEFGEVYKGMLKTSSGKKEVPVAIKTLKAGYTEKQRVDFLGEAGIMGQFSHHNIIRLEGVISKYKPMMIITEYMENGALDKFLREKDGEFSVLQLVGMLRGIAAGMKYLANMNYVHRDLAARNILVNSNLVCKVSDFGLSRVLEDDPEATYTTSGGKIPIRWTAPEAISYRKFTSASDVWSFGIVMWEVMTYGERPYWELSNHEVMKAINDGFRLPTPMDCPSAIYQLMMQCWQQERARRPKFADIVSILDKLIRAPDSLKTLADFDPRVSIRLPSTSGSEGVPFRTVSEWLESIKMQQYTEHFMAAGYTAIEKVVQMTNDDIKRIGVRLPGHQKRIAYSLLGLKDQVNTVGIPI
METHOD DESCRIPTION: Kinase inhibition assay (KinaseProfiler, 33P-ATP)
RECORDED METRIC: IC50
A complete answer gives the number and then names the unit.

Task: Consider the molecule Cc1ccc(NC(=O)c2cccc(C(F)(F)F)c2)cc1C#Cc1nn(C2CCN(C)CC2)c2ncnc(N)c12 tested on EphA2 (Homo sapiens (Human), UniProt P29317); state its IC50.
Result: 18 nM
